Values were extracted from PubChem BioAssay (NCI).

# System: LOX IMVI melanoma
# experimental_details: NCI-60 one-dose screen, 48 h
# details: 10 µM
Compounds without any hit were thinned out: in the full panel of roughly 83,000, 20% have a hit. The source made the active and inactive calls. Rule for the calls: active = growth percent below 10; inactive = the rest.
Valid outcomes are listed here; reply with one: yes = active, no = inactive

Below, 3 molecules whose answers are already recorded.
INSERT INTO results (molecule, target_system, group) VALUES
  ('COc1ccc(-c2nc3cc(C)ccc3n2CC(=O)N=Nc2c(O)[nH]c3ccc(OC)cc23)cc1', 'LOX IMVI melanoma', 'yes'),
  ('NS(=O)(=O)c1ccc(-n2cc(-c3cccc(NC(=O)c4cc(Cl)cc(Cl)c4)c3)nn2)cc1', 'LOX IMVI melanoma', 'yes'),
  ('COc1ccc(C(=O)/C=C/c2ccccc2Cl)cc1S(N)(=O)=O', 'LOX IMVI melanoma', 'no');

Task: What was the test verdict on CC(C)c1sc(NC(=O)c2cc(NC(=O)c3cc(NC(=O)c4cscn4)cn3C)cn2C)nc1C(=O)NCCCN(C)C ?
Result: yes

====

# Test system: NCI-H322M lung
# experimental_details: NCI-60 one-dose screen, 48 h (100 = growth as untreated, 0 = no growth, -100 = all killed)
# details: 10 µM unless noted
About 83,000 compounds went through this panel and 20% of them were active in at least one assay; those are over-represented in the sample as a whole.
property_name: growth (%)
Write the value in % as a bare number.

Below: 3 molecules and their reported growth.
INSERT INTO measurements (molecule, unit_symbol, meas_value) VALUES
  ('COc1ccc2[nH]cc(-c3nnc(N)nc3-c3c[nH]c4ncc(Br)cc34)c2c1', '%', 81.3),
  ('O=C(O)c1ccc(-c2ccc(/C=N/NC(=O)c3[nH]c4ccc(Br)cc4c3-c3ccccc3)s2)cc1', '%', 20.4),
  ('COc1cc(C2CC(c3cc(OC)c(OC)c(OC)c3)=Nc3c(N)nc(N)nc3N2)ccc1Oc1nc(NCCO)nc(N2CCOCC2)n1 (centres undefined)', '%', 86.2);

For reference, reported growth for COc1ccc2cc([C@H](C)C(=O)N/N=C/c3ccc(Br)cc3)ccc2c1 stands at 98.2

For reference, reported growth for CCOP(=O)(OCCCl)c1nc(-c2ccc(C)cc2)oc1NCc1ccccc1 (centres undefined) stands at 84.6

For reference, reported growth for COc1ccc(/C=C/c2nc3ccccc3n3c(-c4ccc(Cl)cc4)nnc23)cc1 stands at 104

For reference, reported growth for CC12CC[C@@H]3[C@]4(C)COC(c5cn[nH]c5-c5ccc(Br)cc5)O[C@@H]4CC[C@@]3(C)[C@@H]1CC(C1=CCOC1=O)O2 (some centres undefined) stands at 66.1

For reference, reported growth for Nc1nnc(-c2c[nH]c3ncc(Br)cc23)c(-c2c[nH]c3ccc(F)cc23)n1 stands at 50.5

For reference, reported growth for O=C(NNc1nc2cc(F)ccc2n2c(CN3CCCCC3)ccc12)c1cnccn1 stands at -7.19

====

# Tested on: DU-145 prostate
# experimental_details: NCI-60 one-dose screen, 48 h (100 = growth as untreated, 0 = no growth, -100 = all killed)
# details: 10 µM unless noted
Compounds without any hit were thinned out: in the full panel of roughly 83,000, 20% have a hit.
Returns: string. Value is Criterion met if measured growth is below 40%, and Criterion not met if it is greater than or equal to it.

Below, 4 compounds whose answers are already recorded.
INSERT INTO results (compound, group) VALUES
  ('Cc1occc1C(=O)NN1C(=O)/C(=C/C=C/c2ccc([N+](=O)[O-])o2)SC1=S', 'Criterion met'),
  ('O=C(/C=C/Nc1ccc(Cl)cc1)c1ccc2c(c1)Nc1ccccc1S2', 'Criterion met'),
  ('O=C(c1ccc(OCCN2CCOCC2)cc1)C1[C@H](c2ccc(Cl)cc2)[C@@H](c2ccccc2)NC12C(=O)Nc1ccc(Cl)cc12 (stereo partly drawn)', 'Criterion not met'),
  ('N#Cc1c(-c2ccc(Cl)cc2)nc2n[nH]c(-c3ccc(Cl)cc3)c2c1-c1ccc(C(F)(F)F)cc1', 'Criterion met');

Task: hey, is growth for COc1cc2oc(-c3cccc(C(=O)Nc4ccc(Cl)cc4)c3)cc(=O)c2c(OCCNC(=O)[C@@H](N)CCC(=O)O)c1OC lower than 40% or not?
Result: Criterion not met

Task: hey, is growth for COc1ccc2[nH]c(O)c(N=NC(=O)Cn3c(-c4ccccc4)nc4cc(C)ccc43)c2c1 lower than 40% or not?
Result: Criterion met

Task: hey, is growth for Cn1cc(-c2nc(N)nnc2-c2c[nH]c3ccc(Br)cc23)c2cccnc21 lower than 40% or not?
Result: Criterion not met

Task: hey, is growth for COc1ccc(C(=O)/C=C/c2ccccc2Cl)cc1S(N)(=O)=O lower than 40% or not?
Result: Criterion not met

Task: hey, is growth for COc1cccc(-c2c(C#N)c(-c3ccc(Cl)cc3)nc3n[nH]c(-c4ccc(Cl)cc4)c23)c1 lower than 40% or not?
Result: Criterion not met

Task: hey, is growth for Cc1cc(C)cc(C(=O)Nc2cccc(-c3cn(-c4ccc(S(N)(=O)=O)cc4)nn3)c2)c1 lower than 40% or not?
Result: Criterion not met

Task: hey, is growth for Cc1ccc(NC(=O)[C@]23CCC(C)(C)CC2C2=CCC4[C@@]5(C)C[C@@H](O)[C@H](O)[C@@](C)(CO)C5CC[C@@]4(C)[C@]2(C)CC3)cc1 (stereo partly drawn) lower than 40% or not?
Result: Criterion not met

Task: hey, is growth for C#CCOc1cc(N(CC)CC)ccc1C(C(=O)NC(C)(C)C)N(C(=O)C1CCc2cc(F)ccc2O1)c1ccc(Br)cc1 (stereo not drawn) lower than 40% or not?
Result: Criterion not met

Task: hey, is growth for Cc1ccc(NCC(=O)Cn2cc(COc3ccc(C=Nc4cnc5ccccc5c4)cc3)nn2)cc1 lower than 40% or not?
Result: Criterion not met

Task: hey, is growth for CC(=O)Nc1ccc(-n2cnc3cc(-c4ccc(O)cc4)ccc32)cc1C(F)(F)F lower than 40% or not?
Result: Criterion met

Task: hey, is growth for CN(C)c1nc(NCCNS(=O)(=O)c2ccc(C3=Nc4c(N)nc(N)nc4NC(c4ccc(C(F)(F)F)cc4)C3)cc2)nc(Nc2ccc(F)cc2)n1 (stereo not drawn) lower than 40% or not?
Result: Criterion met

Task: hey, is growth for N/C(=N\c1nc2ccccc2s1)NC(=O)Nc1ccccc1Br lower than 40% or not?
Result: Criterion met

Task: hey, is growth for O=C(c1ccccc1)c1ccc2nc(-c3cccc(Cl)c3)[nH]c2c1 lower than 40% or not?
Result: Criterion not met

Task: hey, is growth for CCCS(=O)(=O)N1CCCC(C(=O)Nc2nc3ccc(NC(=O)c4ccc(F)c(OC)c4F)cc3s2)C1 (stereo not drawn) lower than 40% or not?
Result: Criterion not met

Task: hey, is growth for CC(=O)Oc1ccc(/C=C/C(=O)N[C@@H](Cc2ccccc2)C(O)C(=O)NCc2ccccc2)cc1OC(C)=O (stereo partly drawn) lower than 40% or not?
Result: Criterion not met

Task: hey, is growth for CCOC(=O)C1=C(N)N(c2ccccc2)C2=C(C(=O)CC(C)(C)C2)C1c1cccc(Cl)c1Cl (stereo not drawn) lower than 40% or not?
Result: Criterion not met

Task: hey, is growth for N#Cc1c(-c2cccc(Cl)c2Cl)cc(-c2ccc3ccccc3c2)[nH]c1=O lower than 40% or not?
Result: Criterion not met

Task: hey, is growth for COc1ccc(NC(=O)[C@H](C)N)cc1C(=O)Nc1cccc(C2CC(=O)c3c(cc(OC)c(OC)c3OC)O2)c1 (stereo partly drawn) lower than 40% or not?
Result: Criterion not met

Task: hey, is growth for COc1ccc(NC(=O)Cn2c(O)c(N=Nc3ccc(S(N)(=O)=O)cc3)c3ccccc32)cc1 lower than 40% or not?
Result: Criterion not met

Task: hey, is growth for O=c1oc2ccc(Br)cc2cc1C1=CSc2nc3sc4c(c3c(=O)n2N=C1)CCCC4 lower than 40% or not?
Result: Criterion not met

Task: hey, is growth for Cc1cccc(NC(=O)[C@]23CCC(C)(C)CC2C2=CCC4[C@@]5(C)C[C@@H](O)[C@H](O)[C@@](C)(CO)C5CC[C@@]4(C)[C@]2(C)CC3)c1 (stereo partly drawn) lower than 40% or not?
Result: Criterion met

Task: hey, is growth for C=C1CC[C@@H]2[C@]3(C)COC(c4cn(-c5ccccc5)nc4-c4cccc([N+](=O)[O-])c4)O[C@@H]3CC[C@@]2(C)[C@@H]1C/C=C1/C(=O)OC[C@H]1O (stereo partly drawn) lower than 40% or not?
Result: Criterion not met

Task: hey, is growth for Cc1ccc(-n2c(-c3cc4ccccc4nc3Cl)noc2=O)cc1 lower than 40% or not?
Result: Criterion not met

Task: hey, is growth for COc1cc2nc(SCc3ccccc3)n(-c3ccc(Cl)cc3)c(=O)c2cc1OC lower than 40% or not?
Result: Criterion met

Task: hey, is growth for Cn1cc(-c2cc3nc(-c4c[nH]c5ccc(Cl)cc45)cc(N)n3n2)c2ccccc21 lower than 40% or not?
Result: Criterion met

Task: hey, is growth for Cn1cc(-c2cc3nc(-c4cn(C)c5ncc(Br)cc45)cc(N)n3n2)c2cc(Cl)ccc21 lower than 40% or not?
Result: Criterion met

Task: hey, is growth for CCOC(=O)C1=C(N)N(c2ccccc2)C2=C(C(=O)CC(C)(C)C2)C1c1ccc(N2CCOCC2)cc1 (stereo not drawn) lower than 40% or not?
Result: Criterion not met
